The origin of these recorded values is PubChem BioAssay (NCATS).

Assay: A High-Content qHTS Against Drug Library for the Identification of Small Molecules that Inhibit DYT1 Early Onset Primary Dystonia-Associated Cell Pathology (AID 1645839)
Details: HEK293 Flp-In EGFP-delE TorsinA, punctate imaging, 48 h; series mostly up to 46.1 µM
Records with an inconclusive call do not appear. The source made the active and inactive calls. The call rests on the fitted dose curve.
VALUE_TYPE: % pathology change, negative = correction

Example results:
COMPOUND	RESULT
CC(=O)NS(=O)(=O)c1ccc(N)cc1	inactive
CC1(C)S[C@@H]2[C@H](N=CN3CCCCCC3)C(=O)N2[C@H]1C(=O)O	inactive
O=C(O)/C=C/c1ccc(Cn2ccnc2)cc1	inactive
NNC(=O)CP(=O)(c1ccccc1)c1ccccc1	inactive
CC(=O)N1C[C@H](O)C[C@H]1C(=O)O	inactive

Hi team, please reply with % pathology change, negative = correction for each item in this list.
1. Cc1cc(C)nc(NS(=O)(=O)c2ccc(N)cc2)n1
2. CCN1CC(CCN2CCOCC2)C(c2ccccc2)(c2ccccc2)C1=O (centres undefined)
3. NC(=O)N[C@@H](CCC(=O)O)C(=O)O
4. CCc1nnc(NS(=O)(=O)c2ccc(N)cc2)s1
5. CC(C)(C)NCC(O)COc1cccc2c1CCC(=O)N2 (centres undefined)
6. O=C(O)Cc1ccc(CCNS(=O)(=O)c2ccc(Cl)cc2)cc1
7. CCN(CC)S(=O)(=O)c1ccc(C(=O)O)cc1
8. CC1CC(OC(=O)c2ccccc2O)CC(C)(C)C1 (centres undefined)

1. inactive
2. inactive
3. inactive
4. inactive
5. inactive
6. inactive
7. inactive
8. inactive

I'm hoping you can list % pathology change, negative = correction for every compound here, please.
1. C[n+]1ccccc1/C=N/O
2. CN1CCN(C(=O)C2CCCCC2)CC1
3. CC(=O)N[C@@H](Cc1ccc(O)cc1)C(=O)O
4. COc1ccc2cc(CCC(C)=O)ccc2c1

["inactive", "inactive", "inactive", "inactive"]

Give me % pathology change, negative = correction for each of these compounds, listed below.
1. O=C(O)c1ccccc1OP(=O)(O)O
2. Cc1ccc(S(=O)(=O)NC(=O)NC2CCCCCCC2)cc1
3. C=CCNC(N)=S
4. CCOC(=O)[C@H](CCc1ccccc1)N[C@@H](C)C(=O)N1CCC[C@H]1C(=O)O
5. Nc1ccncc1N
6. O=C(O)CNC(=O)c1ccccc1I

inactive
inactive
inactive
inactive
inactive
inactive

Would you be so kind as to report % pathology change, negative = correction for each listed record?
1. CCN(CC)C(=O)c1cccc(C)c1
2. Cc1cccc(C(=O)O)c1O
3. CC(=O)SC[C@@H](Cc1ccccc1)C(=O)NCC(=O)OCc1ccccc1
4. CN1C[C@@H]2C[C@H]1CN2c1cc2c(cc1F)c(=O)c(C(=O)O)cn2C1CC1

1: inactive; 2: inactive; 3: inactive; 4: inactive

Please look at the items below and tell me % pathology change, negative = correction for each one, in order.
1. NC(=O)NS(=O)(=O)c1ccc(N)cc1
2. Nc1ncnc2c1ncn2[C@@H]1O[C@H](COP(=O)(O)O)[C@@H](O)[C@H]1O
3. CC1(c2ccccc2)OC(C(=O)O)=CC1=O (centres undefined)
4. CC(=O)Nc1ccccc1

inactive
inactive
inactive
inactive

Quick request: % pathology change, negative = correction for each listed item, please.
1. CCCCCOC(=O)Nc1nc(=O)n([C@@H]2O[C@H](C)[C@@H](O)[C@H]2O)cc1F
2. C/C=C/C(=O)N(CC)c1ccccc1C
3. O=C(O)CCCc1ccccc1
4. O=C(NCCCN1CCOCC1)c1ccc(Cl)cc1
5. COc1ccc(Cc2cnc(N)nc2N)cc1OC
6. NCC1CCC(C(=O)Oc2ccc(CCC(=O)O)cc2)CC1 (centres undefined)
7. CCCOC(=O)c1ccc(N)cc1
8. NC(=O)NC1NC(=O)NC1=O (centres undefined)

inactive
inactive
inactive
inactive
inactive
inactive
inactive
inactive

Below are 6 compounds. Give each one its % pathology change, negative = correction.
1. CN(C/C=C/C#CC(C)(C)C)Cc1cccc2ccccc12
2. CC(=O)NCc1c(I)c(NC(C)=O)c(I)c(C(=O)O)c1I
3. COc1cc(C(=O)NCCCCCC(=O)O)cc(OC)c1OC
4. O=S1(=O)OC(c2ccc(O)cc2)(c2ccc(O)cc2)c2ccccc21
5. O=C(O)COC(=O)Cc1ccccc1Nc1c(Cl)cccc1Cl
6. C[C@@H]1O[C@@H](OC[C@H]2O[C@@H](Oc3c(-c4ccc(O)c(O)c4)oc4cc(O)cc(O)c4c3=O)[C@H](O)[C@@H](O)[C@@H]2O)[C@H](O)[C@H](O)[C@H]1O

1. inactive
2. inactive
3. inactive
4. inactive
5. inactive
6. inactive

Count: 4. Required value per item: % pathology change, negative = correction.
1. C=CCN1C[C@H](C(=O)N(CCCN(C)C)C(=O)NCC)C[C@@H]2c3cccc4[nH]cc(c34)C[C@H]21
2. CCOc1ccc(C(=O)OCCN(CC)CC)cc1
3. COCC(=O)Nc1c(I)c(C(=O)NCC(O)CO)c(I)c(C(=O)N(C)CC(O)CO)c1I (centres undefined)
4. CN[C@@H]1[C@@H](O)[C@@H](O[C@@H]2[C@H](O)[C@H](O[C@H]3OC(CN)=CC[C@H]3N)[C@@H](N)C[C@H]2N)OCC1(C)O (some centres undefined)

["inactive", "inactive", "inactive", "inactive"]
